Tested on: A. baumannii 19606 (strain 8)
Assay: MIC by broth microdilution (alone and in combination with meropenam), strain 8
Format: cell-based
Conditions: Acinetobacter baumannii, compound alone, read-out: MIC
# maps each entry to its MIC

# count of solved cases: 4
* N=C(N)NOCCCC(=O)NC(=N)[C@@H]1CC[C@@H]2CN1C(=O)N2OS(=O)(=O)O | > 64 µg/mL
* N=C(N)NCCC(=O)NC(=N)[C@@H]1CC[C@@H]2CN1C(=O)N2OS(=O)(=O)O | > 64 µg/mL
* N=C(NC(=O)c1ccc(C(F)(F)F)cn1)[C@@H]1CC[C@@H]2CN1C(=O)N2OS(=O)(=O)[O-].[Na+] | > 64 µg/mL
* CC(=O)N1CCCC[C@@H]1C(=O)NC(=N)[C@@H]1CC[C@@H]2CN1C(=O)N2OS(=O)(=O)[O-].[Na+] | > 64 µg/mL

q: Look up MIC: N=C(NC(=O)C1CCCN=N1)[C@@H]1CC[C@@H]2CN1C(=O)N2OS(=O)(=O)[O-].[Na+] (some centres unmarked)
a: > 64 µg/mL

q: Need MIC, item `N=C(NC(=O)c1ccc(C(F)(F)F)cc1)[C@@H]1CC[C@@H]2CN1C(=O)N2OS(=O)(=O)[O-].[Na+]`
a: > 64 µg/mL

q: Quick one: MIC for `N#Cc1ccc(C(=O)NC(=N)[C@@H]2CC[C@@H]3CN2C(=O)N3OS(=O)(=O)[O-])cc1.[Na+]` ?
a: > 64 µg/mL

q: Given `N=C(NC(=O)c1ccncn1)[C@@H]1CC[C@@H]2CN1C(=O)N2OS(=O)(=O)[O-].[Na+]` , state its recorded MIC.
a: > 64 µg/mL

###

Test system: E. cloacae clinical isolate (strain 5)
Assay: MIC by broth microdilution (alone and in combination with meropenam), strain 5
Assay type: cell-based
Settings: Enterobacter cloacae, compound alone, read-out: MIC, antibacterial activity of example alone
observable: MIC

• N=C(NC(=O)c1cocn1)[C@@H]1CC[C@@H]2CN1C(=O)N2OS(=O)(=O)[O-].[Na+] = > 64 µg/mL

q: // query MIC value for entry `CN1CCC[C@@H](C(=O)NC(=N)[C@@H]2CC[C@@H]3CN2C(=O)N3OS(=O)(=O)[O-])C1.[Na+]`
a: > 64 µg/mL

q: Given the entry `N=C(NC(=O)c1nccs1)[C@@H]1CC[C@@H]2CN1C(=O)N2OS(=O)(=O)[O-].[Na+]` , report its measured MIC.
a: > 64 µg/mL

q: Quick one: MIC for `N=C(NC(=O)c1csc(C(F)(F)F)n1)[C@@H]1CC[C@@H]2CN1C(=O)N2OS(=O)(=O)[O-].[Na+]` ?
a: > 64 µg/mL

q: Look up MIC: `CC(=O)N1CCC(C(=O)NC(=N)[C@@H]2CC[C@@H]3CN2C(=O)N3OS(=O)(=O)[O-])CC1.[Na+]`
a: > 64 µg/mL

###

Tested on: E. cloacae clinical isolate (strain 5)
Experiment: MIC by broth microdilution (alone and in combination with meropenam), strain 5
Assay type: cell-based
Conditions: Enterobacter cloacae, compound alone, read-out: MIC, antibacterial activity of example alone
Measured MIC of individual entries

Answered examples (3):
• N=C(NC(=O)c1ccco1)[C@@H]1CC[C@@H]2CN1C(=O)N2OS(=O)(=O)O = > 64 µg/mL
• N=C(NC(=O)c1cccnc1)[C@@H]1CC[C@@H]2CN1C(=O)N2OS(=O)(=O)O = > 64 µg/mL
• CC(=O)NC(=N)[C@@H]1CC[C@@H]2CN1C(=O)N2OS(=O)(=O)O = > 64 µg/mL

q: Sample `CCC(=O)NC(=N)[C@@H]1CC[C@@H]2CN1C(=O)N2OS(=O)(=O)[O-].[Na+]` — what was its MIC?
a: > 64 µg/mL

q: Fill blank: measured MIC of the compound `N=C(NC(=O)c1cnco1)[C@@H]1CC[C@@H]2CN1C(=O)N2OS(=O)(=O)[O-].[Na+]` is ____.
a: > 64 µg/mL

q: Which MIC is reported for this compound? `CC(C)(C)OC(=O)N1CCC(C(=O)NC(=N)[C@@H]2CC[C@@H]3CN2C(=O)N3OS(=O)(=O)[O-])CC1.[Na+]`
a: > 64 µg/mL

q: Consider the compound shown here: `CN1CCN(CC(=O)NC(=N)[C@@H]2CC[C@@H]3CN2C(=O)N3OS(=O)(=O)[O-])CC1.[Na+]` What is its recorded MIC?
a: > 64 µg/mL

q: // query MIC value for entry `CN1CCC(C(=O)NC(=N)[C@@H]2CC[C@@H]3CN2C(=O)N3OS(=O)(=O)[O-])CC1.[Na+]`
a: > 64 µg/mL

q: Given the entry `N=C(NC(=O)Cc1ncccn1)[C@@H]1CC[C@@H]2CN1C(=O)N2OS(=O)(=O)[O-].[Na+]` , report its measured MIC.
a: > 64 µg/mL

q: # lookup: MIC of `N=C(NC(=O)c1ccncc1)[C@@H]1CC[C@@H]2CN1C(=O)N2OS(=O)(=O)O`
a: > 64 µg/mL

q: Data request, read-out MIC, for `N=C(NC(=O)CC1CCOCC1)[C@@H]1CC[C@@H]2CN1C(=O)N2OS(=O)(=O)[O-].[Na+]`
a: > 64 µg/mL
